System: foxtail, giant (giant foxtail, Setaria faberii)
Assay: Test A preemergence, foxtail, giant
Type: in vivo
Details: 500 g ai/ha, 0 to 100 scale, 0 no effect, 100 complete control
Readout Label: Plant response rating, Foxtail, Giant

> print(dat)
                                    compound                          readout.label  observed
 1  O=C1NCC(c2ccc(F)c(F)c2)N1C(=O)Nc1ccccc1Cl (stereo not shown) [Compound 9]  Plant response rating, Foxtail, Giant         0
 2  O=C1NCC(c2ccc(F)c(F)c2)N1C(=O)Nc1cccc(F)c1F (stereo not shown) [Compound 11]  Plant response rating, Foxtail, Giant        80
 3  O=C1NCC(c2ccc(F)c(F)c2)N1C(=O)Nc1ccccc1 (stereo not shown) [Compound 7]  Plant response rating, Foxtail, Giant         0
 4  O=C(Nc1ccccc1F)N1C(=O)OCC1c1ccc(Cl)cc1 (stereo not shown) [Compound 4]  Plant response rating, Foxtail, Giant         0
 5  O=C1NCC(c2ccc(F)c(F)c2)N1C(=O)Nc1ccccc1F (stereo not shown) [Compound 8]  Plant response rating, Foxtail, Giant         0
 6  O=C1NCC(c2ccccc2)N1C(=O)Nc1ccccc1F (stereo not shown) [Compound 5]  Plant response rating, Foxtail, Giant         0
 7  O=C(Nc1ccccc1Cl)N1C(=O)OCC1c1ccc(F)c(F)c1 (stereo not shown) [Compound 2]  Plant response rating, Foxtail, Giant        30
 8  O=C(Nc1ccccc1C(F)(F)F)N1C(=O)OCC1c1ccc(F)c(F)c1 (stereo not shown) [Compound 1]  Plant response rating, Foxtail, Giant         0
 9  O=C1NCC(c2ccccc2)N1C(=O)Nc1cccc(F)c1F (stereo not shown) [Compound 12]  Plant response rating, Foxtail, Giant        90
10  O=C1NCC(c2ccc(F)c(F)c2)N1C(=O)Nc1ccccc1C(F)(F)F (stereo not shown) [Compound 10]  Plant response rating, Foxtail, Giant        60
